# Test system: NA of A/Texas/12/2007 (H3N2 119E) (Influenza A virus (A/Texas/12/2007(H3N2)))
# Assay remarks: biochemical
# Format: biochemical
Value kind: pIC50
When answering, recall that pIC50 equals minus log10 of the concentration in mol/L, and write that number alone.

Data request: Query for NA of A/Texas/12/2007 (H3N2 119E) (Influenza A virus (A/Texas/12/2007(H3N2))): what pIC50 does the record show for CC(=O)N[C@H]1[C@H]([C@H](O)[C@H](O)CO)OC(C(=O)O)=C[C@@H]1N=C(N)N ?
Data returned: 8.77
